Value source: PubChem BioAssay (NCI)

system: DLD-1 colon; experiment: NCI tumour cell line growth inhibition, 48 h
measured quantity: TGI

Here's what some known entries look like.
compound	TGI
CC(=O)O[C@H]1C(=O)[C@@]2(C)C(C(OC(=O)c3ccccc3)[C@]3(O)CC(OC(=O)C(O)C(NC(=O)c4ccc(C)cc4)c4ccccc4)C(C)=C1C3(C)C)[C@]1(OC(C)=O)CO[C@@H]1C[C@@H]2O (stereo partly drawn)	15.4 µM
Cc1ccc(C)c(NC(=O)CC/C(=N\NC(=O)C(N)=O)C(C)C(=O)c2ccc(O)cc2)c1 (stereo not drawn)	> 100 µM

[in] Kindly state the measured TGI obtained for "Nc1c(-c2ccc(Cl)cc2Cl)[n+]([O-])c2ccccc2[n+]1[O-]" with DLD-1 colon.
[out] > 100 µM

[in] Lookup: TGI / DLD-1 colon / Cc1ccccc1C(C#N)C(=O)C(=O)Nc1cccc(Cl)c1 (stereo not drawn)
[out] > 100 µM

[in] Enter reported TGI observed with DLD-1 colon for CCO[C@]12C[C@H](OC)[C@@]3(O)CC(C1[C@H]3O)C13C4C2[C@H](OC)C1[C@](COC)(CN4CC)[C@H](O)C[C@@H]3OC (stereo partly drawn)
[out] > 100 µM

[in] Fill in the recorded TGI for this compound, with DLD-1 colon as test system: "CN(C)CCNC(=O)c1cccc2[nH]c(-c3ccccc3)nc12"
[out] 39.2 µM

[in] For DLD-1 colon, provide TGI of "O=C1CCC2(CC1)SCCCS2" please.
[out] > 100 µM

[in] Find the measured TGI: item "N#CCCN(c1ccc(-c2nnc(NC(=O)CNNC(=O)CC(=O)Nc3ccccc3)s2)cc1)S(=O)(=O)c1ccccc1" , target or system DLD-1 colon.
[out] > 100 µM

----------
Recorded TGI for the following molecules
system: K-562 leukemia; test: NCI tumour cell line growth inhibition, 48 h
Give just the number in µM; leave the unit off.

Example entries begin here.
molecule	measure unit	TGI
CCOC(=O)c1sc(Nc2ccc(Cl)cc2)nc1C	µM	9.07
CC1C=CC(=O)C(n2cc(F)c(=O)[nH]c2=O)O1 (stereo unspecified)	µM	79.8
CCOC(=O)c1sc(=S)c2c(C(=O)OCC)c(C(=O)OCC)sc2c1C(=O)OCC	µM	25.1

[in] Could you tell me which TGI is on file for "CCCCCCCC[N+](C)(CCCCCCCC)CCCCCCCC" ?
[out] 0.447

[in] Query (molecule): "COC1=CC(c2ccc[nH]2)=N/C1=C\c1[nH]c(C)c(C(=O)CCCCC(=O)Nc2ccccc2)c1C" ; field requested: TGI
[out] 2.74

----------
tested on: NCI-H226 lung; experiment: NCI tumour cell line growth inhibition, 48 h
Where a SMILES comes first, the peptide text is derived from it. [ ]: non-standard residue; d: D form. The star is where a group is joined. Octanoyl = CCCCCCCC(=O)*; Aib = CC(C)(N)C(=O)O; tBu = CC(C)(C)*
measured quantity: TGI (µM)
Write it as a number; the unit µM goes unstated.

compound	measure unit	val
CCCCCCCC(=O)NC(C)(C)C(=O)NC(COC(C)(C)C)C(=O)NC(CC(C)C)C(=O)NC(C)(C)C(=O)NC(COC(C)(C)C)C(=O)NC(COC(C)(C)C)C(=O)NC(CC(C)C)C(=O)NC(C)(C)C(=O)NC(COC(C)(C)C)C(=O)NC(C(=O)NC(CC(C)C)C(=O)OC)C(C)CC (centres undefined) (Octanoyl-[Aib]S(tBu)L[Aib]S(tBu)S(tBu)L[Aib]S(tBu)IL-OMe; configuration not given here)	µM	21.1

[in] So what TGI did "CCn1cnc2c(Nc3cccc(Cl)c3)nc(N[C@@H]3CCCC[C@@H]3N)nc21" get with NCI-H226 lung?
[out] 5.95

[in] // map "CCOC(=O)c1sc(=S)c2c(C(=O)OCC)c(C(=O)OCC)sc2c1C(=O)OCC" to recorded TGI (system: NCI-H226 lung)
[out] 26.7

[in] Fill in the recorded TGI for this compound, with NCI-H226 lung as test system: "CN(C1=NCCO1)c1cccc2c1CCCC2"
[out] 6.14

----------
Each entry below lists one item and its recorded TGI value.
tested on: SNB-75 CNS; test: NCI tumour cell line growth inhibition, 48 h
Field format: number, assumed µM, no unit text.

molecule	measure unit	TGI
C[C@@H]1C=C2C(=O)O[C@@H]3CC[C@H](C1)[C@]23O	µM	20.2
CCOC(=O)c1c(C(F)(F)F)n([O-])c2ccc(OC)cc2[n+]1=O	µM	39.8

[in] Give the measured TGI of O=C(c1cccnc1)N1N=C(c2ccc(Cl)cc2)CC1(O)c1cc(F)c(Cl)cc1Cl (stereo not given) .
[out] 37.3

----------
Reported GI50 values are given for each entry in this list.
tested on: UO-31 renal; assay: NCI tumour cell line growth inhibition, 48 h

compound	GI50
COc1ccc([N+](=O)[O-])c(S(=O)(=O)c2ccc(Cl)cc2)n1	2.97 µM
Cc1[nH]c(=O)[nH]c(=O)c1CO	> 100 µM
COc1ccc(-c2nc(-c3nc4ccc(OC)cc4[nH]3)cc3c2[nH]c2ccccc23)cc1	1.66 µM
CCC(=C/[C@H](C)C/C=C/C(C)=C/[C@@H](C)C(=O)[C@@H](C)[C@H](O)[C@@H](C)CC)/C=C/[C@H]1OC(=O)C=C[C@H]1C	< 0.01 µM
NCCC(O)(P(=O)(O)O)P(=O)(O)O	> 100 µM

[in] Please tell me: GI50 of "CSc1nc2sc3cc(Cl)ccc3n2c(=N)c1C#N" , system UO-31 renal?
[out] > 76.2 µM

[in] // lookup GI50 | system=UO-31 renal | key= COc1ccc2c(c1)CCC1C2CC[C@]2(C)/C(=N/OC(=O)Cc3ccccc3)CCC12 (stereo not given in full)
[out] 19.2 µM

[in] So what GI50 did "COC(=O)CCC/C=C\C[C@H]1C=CC(=O)/C1=C/C[C@@H](O)C/C=C\CC(F)(F)F" get with UO-31 renal?
[out] 1.7 µM

[in] What measured GI50 is associated with "Cn1cc(C2=C(c3cn(CCN)c4ccccc34)C(=O)NC2=O)c2ccccc21" on UO-31 renal?
[out] 3.7 µM

----------
system: HCC-2998 colon; assay: NCI tumour cell line growth inhibition, 48 h; in the data active means GI50 below about 0.43 µM; inactive means the rest
Tick one outcome: YES for active, NO for inactive

Please review the following examples before continuing.
compound	class
Cc1ccc(S(=O)(=O)N2CCc3ccc(O)c4c3C2Cc2cc(Cl)ccc2-4)cc1 (stereo not drawn)	NO
COC1=CC(c2ccc[nH]2)=N/C1=C\c1ccc[nH]1	YES
Cc1nc(NC(=O)CCCN2C(=O)c3cccc4cccc(c34)C2=O)sc1C(=O)Nc1cc(C(=O)NCCCN(C)C)n(C)c1	NO
COc1ccc(C2=NN(C(C)=O)C(c3cn(-c4ccccc4)nc3-c3ccc(Cl)cc3)C2)cc1 (stereo not drawn)	NO
N.N.NCCCCN.O=C([O-])C1(C(=O)[O-])CCC1.O=C([O-])C1(C(=O)[O-])CCC1.[Pt+4].[Pt+4]	NO
COc1ccc2c(c1)CC[C@@H]1[C@@H]2CC[C@]2(C)C(c3ccco3)=C(C=O)C[C@@H]12	NO

[in] Which result was noted for this compound in the test: "Cn1cc(C2=C(c3cn(CCN)c4ccccc34)C(=O)NC2=O)c2ccccc21"
[out] NO

[in] Please share the test call associated with COC(=O)C1=C(C(=O)OC)C23C=C(C)C1C2=C(C)C1(CC1)[C@@](C)(O)C3=O (stereo partly drawn) .
[out] YES

[in] Hi team, can someone confirm the assay call for "C=C1C(=O)O[C@H]2[C@H]1CC/C(COC(=O)NCc1c[nH]c3ccc(Cl)cc13)=C\CC[C@@]1(C)O[C@@H]21" ?
[out] NO

[in] Query: recorded result category for "COc1ccc(/C=C/c2n[nH]c3ccc(N4CCOC4=O)cc23)cc1" in this test
[out] NO

[in] # outcome recorded in this test, key = "NCCC(O)(P(=O)(O)O)P(=O)(O)O"
[out] NO

[in] Check the results log: what was the call for "C=C(C)[C@@H]1CC[C@]2(C)[C@H](CC[C@@H]3[C@H]4[C@H]5OC[C@@]4(CCC5(C)C)CC[C@]32C)[C@@]1(C)CCCN" ?
[out] NO

[in] Hi, sorry to bother you, what did the test record for "COc1cc(/C=C2\COc3ccc(O)c(O)c3C2=O)cc(OC)c1" ?
[out] NO

----------
system: UACC-257 melanoma; assay: NCI tumour cell line growth inhibition, 48 h
The following compounds are listed with their measured TGI values.

# annotated cases, reported TGI shown
compound	measured on	TGI
COP1(=O)Oc2ccccc2C(=O)C(C(F)(F)F)(C(F)(F)F)O1 (stereo unspecified)	UACC-257 melanoma	> 100 µM
O=C1C(=O)C(Br)(Br)C(Br)=C1Br	UACC-257 melanoma	43.6 µM
O=C1C=C(NCCc2cc(Br)c(O)c(Br)c2)C(=O)c2ncccc21	UACC-257 melanoma	2.92 µM
CN(/N=C/C=N/N(C)C1=NCCCCN1)C1=NCCCCN1	UACC-257 melanoma	> 100 µM
N/N=C1\CCCc2c1no[n+]2[O-]	UACC-257 melanoma	> 100 µM
COc1ccc2[nH]c3c(c2c1)COc1ccccc1C3=O	UACC-257 melanoma	> 100 µM

Moving on to another compound below.
[in] Given the compound "O=C(O)c1ccc(C(c2c(O)c3ccccc3oc2=O)c2c(O)c3ccccc3oc2=O)cc1" , what is its reported TGI?
[out] > 100 µM
